src = paper PMC6090556

target: GluN1/GluN2AC1/GluN2CC2(NK) (Rattus norvegicus, UniProt P35439+Q00959+Q00961, N612K)
Sequence (Q00961 20-836 N612K, other chains not shown): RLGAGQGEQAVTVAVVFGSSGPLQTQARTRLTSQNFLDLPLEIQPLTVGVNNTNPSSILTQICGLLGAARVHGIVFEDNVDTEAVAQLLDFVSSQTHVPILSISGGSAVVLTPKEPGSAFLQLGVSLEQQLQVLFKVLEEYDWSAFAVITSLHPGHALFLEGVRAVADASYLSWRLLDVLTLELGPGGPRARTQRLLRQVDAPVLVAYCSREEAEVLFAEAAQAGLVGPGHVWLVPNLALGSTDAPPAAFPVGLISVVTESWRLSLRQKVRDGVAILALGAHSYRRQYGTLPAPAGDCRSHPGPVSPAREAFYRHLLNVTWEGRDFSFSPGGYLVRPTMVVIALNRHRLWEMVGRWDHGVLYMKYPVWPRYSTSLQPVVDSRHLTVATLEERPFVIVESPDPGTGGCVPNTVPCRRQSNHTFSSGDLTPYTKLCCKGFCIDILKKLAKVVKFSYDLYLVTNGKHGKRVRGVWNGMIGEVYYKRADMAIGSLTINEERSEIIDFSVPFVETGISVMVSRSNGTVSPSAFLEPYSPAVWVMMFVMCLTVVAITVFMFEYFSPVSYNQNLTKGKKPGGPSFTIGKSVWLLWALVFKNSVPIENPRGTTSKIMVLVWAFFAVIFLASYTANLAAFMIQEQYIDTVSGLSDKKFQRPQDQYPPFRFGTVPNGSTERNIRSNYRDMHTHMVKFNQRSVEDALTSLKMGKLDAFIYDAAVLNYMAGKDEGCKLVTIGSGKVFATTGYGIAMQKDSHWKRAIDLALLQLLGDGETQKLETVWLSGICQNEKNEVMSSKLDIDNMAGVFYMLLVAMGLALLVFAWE
Sequence (Q00959 23-1464, other chains not shown): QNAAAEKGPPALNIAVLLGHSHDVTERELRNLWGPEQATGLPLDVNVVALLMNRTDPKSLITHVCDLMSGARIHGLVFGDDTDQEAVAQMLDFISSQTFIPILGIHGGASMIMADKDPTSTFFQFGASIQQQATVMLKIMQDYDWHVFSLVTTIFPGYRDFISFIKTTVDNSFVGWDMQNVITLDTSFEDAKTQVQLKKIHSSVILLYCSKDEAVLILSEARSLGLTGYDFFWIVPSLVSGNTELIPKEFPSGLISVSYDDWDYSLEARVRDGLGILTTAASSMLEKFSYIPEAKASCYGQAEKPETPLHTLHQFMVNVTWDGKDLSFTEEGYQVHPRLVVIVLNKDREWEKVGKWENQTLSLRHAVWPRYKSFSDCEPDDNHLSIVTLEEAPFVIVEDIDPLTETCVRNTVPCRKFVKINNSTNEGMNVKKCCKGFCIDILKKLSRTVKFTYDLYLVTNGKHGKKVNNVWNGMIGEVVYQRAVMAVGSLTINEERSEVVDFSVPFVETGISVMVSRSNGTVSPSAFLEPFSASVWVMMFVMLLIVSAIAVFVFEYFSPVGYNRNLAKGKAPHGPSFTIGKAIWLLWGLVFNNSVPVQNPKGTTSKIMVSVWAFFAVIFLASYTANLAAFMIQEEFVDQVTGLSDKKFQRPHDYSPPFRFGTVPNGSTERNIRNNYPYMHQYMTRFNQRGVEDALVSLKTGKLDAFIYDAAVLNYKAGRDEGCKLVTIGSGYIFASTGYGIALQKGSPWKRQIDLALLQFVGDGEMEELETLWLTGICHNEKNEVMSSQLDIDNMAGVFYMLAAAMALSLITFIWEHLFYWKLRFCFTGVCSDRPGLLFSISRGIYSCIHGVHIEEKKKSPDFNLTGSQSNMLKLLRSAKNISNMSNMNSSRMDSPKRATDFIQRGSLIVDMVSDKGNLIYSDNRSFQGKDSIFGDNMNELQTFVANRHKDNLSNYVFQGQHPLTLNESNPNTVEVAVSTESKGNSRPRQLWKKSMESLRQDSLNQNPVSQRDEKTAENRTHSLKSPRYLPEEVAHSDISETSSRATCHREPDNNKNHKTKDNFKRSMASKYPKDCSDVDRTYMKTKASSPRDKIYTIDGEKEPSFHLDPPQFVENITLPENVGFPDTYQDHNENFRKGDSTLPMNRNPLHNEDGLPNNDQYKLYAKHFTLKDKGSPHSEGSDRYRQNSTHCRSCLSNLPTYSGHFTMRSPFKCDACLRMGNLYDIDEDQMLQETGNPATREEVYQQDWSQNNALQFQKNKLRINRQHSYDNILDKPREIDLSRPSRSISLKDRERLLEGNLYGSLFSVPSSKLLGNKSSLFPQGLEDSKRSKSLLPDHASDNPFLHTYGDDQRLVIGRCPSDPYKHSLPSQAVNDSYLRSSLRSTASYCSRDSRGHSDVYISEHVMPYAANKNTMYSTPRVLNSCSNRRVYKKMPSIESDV
assay_comment: Two-electrode voltage-clamp recordings in Xenopus oocytes
Assay type: cell-based
test_conditions: read-out: GluN2AC1/GluN2CC2(NK) EC50 (95% CI); IC50 in text; Zn2+ inhibition, pH 7.3, 0.1 mM Mg2+
outcome_measure: IC50 (nM)
Numeric answer only, unit nM assumed.

Briefly, IC50 measured for [Zn+2] [Zn^2+] : 45

* * *

target: GluN1/GluN2AC1/GluN2CC2(NK) (Rattus norvegicus, UniProt P35439+Q00959+Q00961, N612K)
assay_comment: Two-electrode voltage-clamp recordings in Xenopus oocytes
Format: cell-based
test_conditions: read-out: GluN2AC1/GluN2CC2(NK) EC50 (95% CI); IC50 in text; Zn2+ inhibition, pH 6.8, 0.1 mM Mg2+
outcome_measure: IC50 (nM)
Entry rule: numbers only, all in nM.

GET /values?item= [Zn+2] [Zn^2+] &system= GluN1/GluN2AC1/GluN2CC2(NK) (Rattus norvegicus, UniProt P35439+Q00959+Q00961, N612K) returns IC50: 19
